assay: Metabolic stability in dog hepatocytes; format: in vitro ADME; conditions: pooled cryopreserved hepatocytes; beagle dog hepatocytes, 2 μM compound, 500,000 cells/mL, 37° C.; read-out: Dog Hepatocyte Stability (T½: min)
Would you kindly list half-life at 2 μM for each of these molecules?

Here's what some known entries look like.
1. CC[C@@H](NC(=O)N1C(=O)[C@H](Cc2cc(C)nc(N)c2)[C@H]1C(=O)N(C)c1ccccc1)c1cccc(Cl)c1 [Compound 120] : 2.02 to 4 h
2. CC[C@@H](NC(=O)N1C(=O)[C@H](Cc2ccnc(N)c2)[C@H]1C(=O)N(C)c1ccncc1)c1cccc(C)c1 [Compound 87] : 2.02 to 4 h
3. CN(C(=O)[C@@H]1[C@@H](Cc2ccnc(N)c2)C(=O)N1C(=O)N[C@@H](C1CC1)C(F)(F)F)c1ccncc1 [Compound 77] : 2.02 to 4 h
4. CN(C(=O)[C@@H]1[C@@H](Cc2ccnc(N)c2)C(=O)N1C(=O)N[C@@H](C1CCCCC1)C1CC1)c1ccncc1 [Compound 52] : < 1 h
5. CN(C(=O)[C@@H]1[C@@H](Cc2ccnc(N)c2)C(=O)N1C(=O)N[C@@H](C1CCCCC1)C1CC1)c1ccccc1 [Compound 36] : < 1 h

List reported half-life at 2 μM for each of these molecules:
1. CN(C(=O)[C@@H]1[C@@H](Cc2ccnc(N)c2)C(=O)N1C(=O)N[C@@H](C1CC1)C(F)(F)F)c1ncccn1 [Compound 78]
2. CC[C@@H](NC(=O)N1C(=O)[C@H](Cc2ccnc(N)c2)[C@H]1C(=O)N(C)c1ccncc1)C1CCCCC1 [Compound 25]

A:
1. < 1 h
2. 2.02 to 4 h
